So I've got a bunch of compounds here, and I need their Kd values.
Target: UniProtKB B4EH86
Experiment: Isothermal titration calorimetry (ITC)
Type: binding
Settings: 25 °C
Answers are plain numbers, in µM.

C[C@@H]1O[C@H](C#Cc2ccc(C(C)(C)CN)cc2)[C@@H](O)[C@H](O)[C@@H]1O [22a]
281

Below: the item to evaluate.
QUERY: What does the record list as Kd for C[C@@H]1O[C@H](C#CC(O)c2ccc3ncccc3c2)[C@@H](O)[C@H](O)[C@@H]1O (some centres unmarked) [22f] ?
RESULT: 490

---

Target: BC2L-C-Nt (rBC2L-CN2) (Burkholderia cenocepacia)
Sequence (B4EH86 entry or part of it): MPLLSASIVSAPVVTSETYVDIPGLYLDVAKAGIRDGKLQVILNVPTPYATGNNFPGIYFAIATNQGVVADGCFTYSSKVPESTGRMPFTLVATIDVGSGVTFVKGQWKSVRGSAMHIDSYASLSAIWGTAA
Assay: Surface plasmon resonance (SPR) affinity on BC2L-C-Nt-coated chip
Format: binding
Conditions: 25 °C, rBC2L-CN2 immobilized on CM5 chip, multi-cycle affinity; SD from duplicates
experimental-readout: pKd
One number for each entry, as −log10 of the molar value.

Example entries and their recorded answers appear below.
CNCc1ccc(C#C[C@H]2O[C@@H](C)[C@@H](O)[C@@H](O)[C@@H]2O)cc1 [22b]
2.11
C[C@@H]1O[C@H](NC(=O)c2ccc(C(C)(C)CN)cc2)[C@@H](O)[C@H](O)[C@@H]1O
3.03
CNCc1ccc(/C=C/[C@H]2O[C@@H](C)[C@@H](O)[C@@H](O)[C@@H]2O)cc1 [28b]
2.99
C[C@@H]1O[C@H](C#Cc2ccc(CNC(=N)N)cc2)[C@@H](O)[C@H](O)[C@@H]1O [22g]
2.89

Provide each entry's pKd from the list below.
1. CNCc1ccc(C(=O)N[C@H]2O[C@@H](C)[C@@H](O)[C@@H](O)[C@@H]2O)cc1
2. C[C@@H]1O[C@H](C#Cc2ccc(C(C)(C)CN)cc2)[C@@H](O)[C@H](O)[C@@H]1O [22a]
3. CNCc1ccc(-c2cn([C@H]3O[C@@H](C)[C@@H](O)[C@@H](O)[C@@H]3O)nn2)cc1 [12b]

RESULT:
1: 2.80; 2: 2.88; 3: 2.61

QUERY: Would you mind telling me what pKd value was observed for C[C@@H]1O[C@H](NC(=O)c2ccc(-c3cccc(N)c3)o2)[C@@H](O)[C@H](O)[C@@H]1O ?
RESULT: 2.63

---

Biological target: BC2L-C-Nt (rBC2L-CN2) (Burkholderia cenocepacia)
Experiment: Surface plasmon resonance (SPR) affinity on BC2L-C-Nt-coated chip
Type: binding
Conditions: 25 °C, rBC2L-CN2 immobilized on CM5 chip, multi-cycle affinity; SD from duplicates
experimental-readout: pKd
Answers are plain numbers, as −log10 of the molar value.

# count of solved cases: 3
C[C@@H]1O[C@H](NC(=O)c2ccc3cc[nH]c3c2)[C@@H](O)[C@H](O)[C@@H]1O [8d]
2.47
C[C@@H]1O[C@H](n2cc(-c3ccc(C(C)(C)CN)cc3)nn2)[C@@H](O)[C@H](O)[C@@H]1O [12a]
2.92
C[C@@H]1O[C@H](C#CC(O)c2ccc3ncccc3c2)[C@@H](O)[C@H](O)[C@@H]1O (stereo partly shown) [22f]
3.52

Could you now look at the following molecule, please?
QUERY: Value lookup for pKd; key = C[C@@H]1O[C@H](NC(=O)c2ccc3[nH]ccc3c2)[C@@H](O)[C@H](O)[C@@H]1O [8e]
RESULT: 2.85
